Cited source: patent US20080220450A1

- test-system: DQA1*0301/DQB1*0301 (DQ3.1)
- experimental-details: binding to purified HLA
measurement-type: IC50 (nM)
One number for each entry, in nM.

[
  {
    "binder": "SYPARYANAMAVGAT [B. lentus .160]",
    "value-units": "nM",
    "value": 63
  },
  {
    "binder": "GSISYPARYANAMAV [B. lentus 157]",
    "value-units": "nM",
    "value": 6010
  },
  {
    "binder": "NGIEWAIANNMDVIN [BPN' Y217L .109]",
    "value-units": "nM",
    "value": 2180
  }
]

**Query** Which IC50 value belongs to GTVAALNNSIGVLGV [BPN' Y217L .70] ?
**Result** 440
